Reported viability, T/C values for the following compounds.
test system: 233499-124-R-J3-PDC complex spheroid growth; experiment: Anticancer human tumor 233499-124-R-J3-PDC patient-derived colon adenocarcinoma cell line growth inhibition [AhR]; settings: second compound 0.1 µM; first compound 1 µM; active compounds read low
Your answer should be a plain number; it is taken to be in %.

Answered cases to consult:
INSERT INTO results (compound, endpoint_value) VALUES
  ('CC1COCCN1c1cc(C2(S(C)(=N)=O)CC2)nc(-c2ccnc3[nH]ccc23)n1 (stereo unspecified) + Cc1ccccc1N=Nc1ccc(NC(=O)c2ccnn2C)c(C)c1', 97.8),
  ('CC1(C)CCC(CN2CCN(c3ccc(C(=O)NS(=O)(=O)c4ccc(NCC5CCOCC5)c([N+](=O)[O-])c4)c(Oc4cnc5[nH]ccc5c4)c3)CC2)=C(c2ccc(Cl)cc2)C1 + Cc1cncc(-c2nc(NCCc3c[nH]c4ccccc34)c3ncn(C(C)C)c3n2)c1', 104);

Quick note, viability, T/C for Nc1ncn(C2CC(O)C(CO)O2)c(=O)n1 (stereo unspecified) + Cc1cncc(-c2nc(NCCc3c[nH]c4ccccc34)c3ncn(C(C)C)c3n2)c1 landed at 81.2

====

test system: 233499-124-R-J3-PDC complex spheroid growth; assay: Anticancer human tumor 233499-124-R-J3-PDC cell line growth inhibition [AhR]; conditions: second compound 1 µM; first compound 0.0949 µM; active compounds read low;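 also: spheroids exposed to agents for seven days before reading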
We begin with a simple list: items and their reported viability, T/C.
Only the number, expressed in %, is required.

INSERT INTO measurements (compound, endpoint_value) VALUES
  ('O=C(C=Cn1cnc(-c2cc(C(F)(F)F)cc(C(F)(F)F)c2)n1)NNc1cnccn1 + Cc1ccccc1N=Nc1ccc(NC(=O)c2ccnn2C)c(C)c1', 116);

viability, T/C of CC(C)CC(NC(=O)C(Cc1ccccc1)NC(=O)c1cnccn1)B(O)O (centres undefined) + Cc1ccccc1N=Nc1ccc(NC(=O)c2ccnn2C)c(C)c1 , assay on 233499-124-R-J3-PDC complex spheroid growth, is 0.64

Nc1ncn(C2CC(O)C(CO)S2)c(=O)n1 (centres undefined) + Cc1ccccc1N=Nc1ccc(NC(=O)c2ccnn2C)c(C)c1 on 233499-124-R-J3-PDC complex spheroid growth gives viability, T/C = 116

Entry CCN(c1cc(-c2ccc(CN3CCOCC3)cc2)cc(C(=O)NCc2c(C)cc(C)[nH]c2=O)c1C)C1CCOCC1 + CC(CO)NC(=O)c1cc(-c2ccc(Cl)cc2)nn(-c2cnn(C)c2)c1=O under 233499-124-R-J3-PDC complex spheroid growth had viability, T/C of 91

====

test system: 233499-124-R-J3-PDC complex spheroid growth; assay: Anticancer human tumor 233499-124-R-J3-PDC cell line growth inhibition [AhR]; settings: second compound 10 µM; first compound 0.01 µM; active = viability on the fitted dose curve at most 10% of control; inactive = the rest;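 also: spheroids exposed to agents for seven days before reading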
Outcomes you can answer with include only these: 1 (yes) (active), 0 (no) (inactive)

Consider the following illustrative entries.
INSERT INTO measurements (compound, label) VALUES
  ('Cn1ncnc1C1c2n[nH]c(=O)c3cc(F)cc(c23)NC1c1ccc(F)cc1 (stereo unspecified) + Cc1cncc(-c2nc(NCCc3c[nH]c4ccccc34)c3ncn(C(C)C)c3n2)c1', '0 (no)'),
  ('CC[C@@]1(O)C(=O)OCc2c1cc1n(c2=O)Cc2cc3c(CN(C)C)c(O)ccc3nc2-1 + Cc1cncc(-c2nc(NCCc3c[nH]c4ccccc34)c3ncn(C(C)C)c3n2)c1', '0 (no)'),
  ('CC1COCCN1c1cc(-c2ccnn2C)c2ccnc(-c3ccn[nH]3)c2n1 (stereo unspecified) + Cc1cncc(-c2nc(NCCc3c[nH]c4ccccc34)c3ncn(C(C)C)c3n2)c1', '1 (yes)'),
  ('Cn1ncnc1C1c2n[nH]c(=O)c3cc(F)cc(c23)NC1c1ccc(F)cc1 (stereo unspecified) + CC(CO)NC(=O)c1cc(-c2ccc(Cl)cc2)nn(-c2cnn(C)c2)c1=O', '0 (no)'),
  ('CC1COCCN1c1cc(-c2ccnn2C)c2ccnc(-c3ccn[nH]3)c2n1 (stereo unspecified) + Cc1ccccc1N=Nc1ccc(NC(=O)c2ccnn2C)c(C)c1', '0 (no)');

Consider the record given below.
## Input Per the assay record, what outcome was assigned to Nc1ncn(C2CC(O)C(CO)O2)c(=O)n1 (stereo unspecified) + Cc1ccccc1N=Nc1ccc(NC(=O)c2ccnn2C)c(C)c1 ?
## Output 0 (no)
